# target_under_test: Neu5Ac(a2-3)Gal(b1-4)GlcNAc(b1-2)Man(a1-3)[GlcNAc(b1-4)][Neu5Ac(a2-3)Gal(b1-4)GlcNAc(b1-2)Man(a1-6)]Man(b1-4)GlcNAc(b1-4)GlcNAc
# measurement_protocol: glycan array binding signal (z-score within array); higher = stronger binding
# condition_info: glycan notation: IUPAC condensed, linker removed
This is one part of a sample in which the strongest signals are shown more often than they occur.
Quick reference for glycan array binding signal (z-score) among some binders
When you answer, write just the number.

The examples below pair each entry with its known result.
• Clone646PsrP (Streptococcus pneumoniae) (protein) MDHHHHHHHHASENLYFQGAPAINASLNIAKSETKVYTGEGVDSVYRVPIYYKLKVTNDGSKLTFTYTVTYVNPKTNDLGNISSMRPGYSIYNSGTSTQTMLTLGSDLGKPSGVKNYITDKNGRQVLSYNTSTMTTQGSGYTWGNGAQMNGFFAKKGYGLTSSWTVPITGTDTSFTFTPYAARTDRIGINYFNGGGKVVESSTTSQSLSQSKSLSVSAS = -0.995
• EfCBM33A (Enterococcus faecalis), Q838S1 (protein) MKKSLLTIVLAFSFVLGGAALAPTVSEAHGYVASPGSRAFFGSSAGGNLNTNVGRAQWEPQSIEAPKNTFITGKLASAGVSGFEPLDEQTATRWHKTNITTGPLDITWNLTAQHRTASWDYYITKNGWNPNQPLDIKNFDKIASIDGKQEVPNKVVKQTINIPTDRKGYHVIYAVWGIGDTVNAFYQAIDVNIQ = 0.122
• HA-11100 (Pseudomonas aeruginosa), Q02G51_PSEAB (protein) QFNPNEIKISQQGKTTLIDQSTQRAIINWKGFDVSADEAVRFNQPGVTSSTLNRVTAGQESVIAGRISAPGQVIIYNSNGVVFSGSAKVDVGSLITTTANISDEHFRQGKLIFDQPGNPDARIVNDGSISVAEKGLAAFVAPSVANNGVINARLGTVAMAAGNAATIDLYG = -0.268
• SSR2 (Sclerotium rolfsii) (protein) MVYKITVRVYQTNPDAFFHPVEKTVWKYANGGTWSITDDQHVLTMGGSGTSGTLRFHADNGESFTATFGVHNYKRWCDIVTNLAADETGMVINQQYYSQKNREEARERQLSNYQVKNAKGRNFQIVYTEAEGNDLHANLIIG = -0.284

Would you kindly look at the next entry?
What glycan array binding signal (z-score) value was documented for this binder, PLU (Photorhabdus luminiscence) (protein) HHHHHHENLYFQSSIVFASIDPRSNPLQTSSQNYVDIPGLKLDVSKYSNSPCLTALITLNIPTPYASGNNFPGGNFAIVTDQGEQLAYGGFTYSSKIPENSGRMPFTLVARYSLASNVSTIKAQWSNIRGSTVHIDSYASISAVIQCNQLV ?
-0.251
